PROCEDURE DETAILS: Total drug level in mdr1a-deficient mouse brain at 12 mg/kg/day administered through continuous minipump treatment for 3 days by UPLC-MS analysis
Assay type: ADME, organism-based
RECORDED CONDITIONS: other: continuous minipump, read-out: Drug uptake
READOUT NAME: concentration at 72 h

1. COc1ccc(C(CN(C)C)C2(O)CCCCC2)cc1.Cl (stereo unspecified) [VENLAFAXINE HYDROCHLORIDE] | 828 ng/g

###

Listed next: entries and their corresponding Kp uu at 72 h.
PROCEDURE DETAILS: Unbound brain to plasma partition coefficient of the compound in mdr1a-deficient mouse treated with venlafaxine at 12 mg/kg/day administered through continuous minipump treatment for 3 days
Assay type: ADME, organism-based
RECORDED CONDITIONS: other: continuous minipump, read-out: K(p,uu,brain)
READOUT NAME: Kp uu at 72 h

1. CN(C)CC(c1ccc(O)cc1)C1(O)CCCCC1 (configuration not stated) [DESVENLAFAXINE] | 2.4
2. CNCC(c1ccc(OC)cc1)C1(O)CCCCC1 (configuration not stated) [N-DESMETHYLVENLAFAXINE] | 1.4

###

PROCEDURE DETAILS: Total brain to plasma partition coefficient of the compound in wild type Crl:CF1 mouse expressing Abcb1a mutant at 4 mg/kg/day administered through continuous minipump treatment for 3 days
RECORDED CONDITIONS: brain and plasma, other: continuous minipump
READOUT NAME: Kp at 72 h

1. Cc1nc2n(c(=O)c1CCN1CCC(c3noc4cc(F)ccc34)CC1)CCCC2 | 0.52

###

PROCEDURE DETAILS: Total brain to plasma partition coefficient of the compound in mdr1a-deficient mouse at 3 mg/kg/day administered through continuous minipump treatment for 3 days
Type: ADME, organism-based
RECORDED CONDITIONS: other: continuous minipump
READOUT NAME: Kp at 72 h

1. O=C1CCc2ccc(OCCCCN3CCN(c4cccc(Cl)c4Cl)CC3)cc2N1 | 1.3

###

PROCEDURE DETAILS: Total drug level in wild type Sprague-Dawley rat brain expressing Abcb1a at 9 mg/kg/day administered through continuous minipump treatment for 3 days by UPLC-MS analysis
Format: ADME, organism-based
RECORDED CONDITIONS: other: continuous minipump, read-out: Drug uptake
READOUT NAME: concentration at 72 h (ng/g)

1. COc1ccc(C(CN(C)C)C2(O)CCCCC2)cc1.Cl (configuration not stated) [VENLAFAXINE HYDROCHLORIDE] | 158
2. Br.CN(C)CCCC1(c2ccc(F)cc2)OCc2cc(C#N)ccc21 (configuration not stated) [CITALOPRAM HYDROBROMIDE] | 265

###

PROCEDURE DETAILS: Total plasma concentration in wild type Sprague-Dawley rat expressing Abcb1a at 5 mg/kg/day administered through continuous minipump treatment for 3 days by UPLC-MS analysis
Assay type: ADME, organism-based
RECORDED CONDITIONS: other: continuous minipump
READOUT NAME: concentration at 72 h (ng/mL)

1. Cc1nc2n(c(=O)c1CCN1CCC(c3noc4cc(F)ccc34)CC1)CCCC2 [RISPERIDONE] | 194

###

PROCEDURE DETAILS: Unbound brain to plasma partition coefficient of the compound in mdr1a-deficient rat at 5 mg/kg/day administered through continuous minipump treatment for 3 days
Assay type: ADME, organism-based
RECORDED CONDITIONS: other: continuous minipump, read-out: K(p,uu,brain)
READOUT NAME: Kp uu at 72 h

1. Cc1nc2n(c(=O)c1CCN1CCC(c3noc4cc(F)ccc34)CC1)CCCC2 | 1.4

Values from ChEMBL document CHEMBL3525946
